Recorded IC50 for the following compounds
experimental target: HDAC8 (Homo sapiens, UniProt Q9BY41)
Construct: EurofinPanlabs (Taipei, Taiwan)
Sequence (Q9BY41 1-377): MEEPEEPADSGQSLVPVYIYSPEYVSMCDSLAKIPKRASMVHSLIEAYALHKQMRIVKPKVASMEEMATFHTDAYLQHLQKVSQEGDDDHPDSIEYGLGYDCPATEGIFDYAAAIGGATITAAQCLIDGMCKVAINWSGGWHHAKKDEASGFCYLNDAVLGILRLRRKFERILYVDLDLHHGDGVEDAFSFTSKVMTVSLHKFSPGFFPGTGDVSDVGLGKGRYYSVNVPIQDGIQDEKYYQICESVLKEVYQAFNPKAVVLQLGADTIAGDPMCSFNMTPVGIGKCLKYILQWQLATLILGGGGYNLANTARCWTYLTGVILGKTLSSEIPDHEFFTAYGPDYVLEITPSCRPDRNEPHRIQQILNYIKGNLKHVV
assay info: HDAC biochemical assay (Fluor-de-Lys), HDAC8
test conditions: human recombinant HDAC8
Please make sure the unit comes right after the number.

Answered cases to consult:
COc1cnc2c(NCc3ccc(C(=O)NO)cc3)cccc2c1 2.76 µM
O=C(NO)c1ccc(CNc2cccc3cc(-c4cccnc4)cnc23)cc1 1.8 µM
O=C(NO)c1ccc(CNc2cccc3cc(Cl)cnc23)cc1 3.64 µM
N#Cc1cccc(-c2cnc3c(NCc4ccc(C(=O)NO)cc4)cccc3c2)c1 3.83 µM
O=C(NO)c1ccc(CNc2cccc3cc(-c4ccoc4)cnc23)cc1 2.91 µM
O=C(NO)c1ccc(CNc2cccc3cc(-c4ccco4)cnc23)cc1 3.14 µM

In one line, give reported IC50 of the entry O=C(NO)c1ccc(CNc2cccc3cc(-c4ccsc4)cnc23)cc1 . 4.93 µM

In one line, give reported IC50 of the entry O=C(NO)c1ccc(CNc2cccc3cc(-c4ccncc4)cnc23)cc1 . 2.35 µM

In one line, give reported IC50 of the entry O=C(NO)c1ccc(CNc2cccc3cc(-c4ccccc4)cnc23)cc1 . 6.88 µM

----------
Recorded pIC50 for the following molecules
experimental target: HDAC1 (Homo sapiens)
Construct: EurofinPanlabs (Taipei, Taiwan)
Sequence (Q13547 whole entry): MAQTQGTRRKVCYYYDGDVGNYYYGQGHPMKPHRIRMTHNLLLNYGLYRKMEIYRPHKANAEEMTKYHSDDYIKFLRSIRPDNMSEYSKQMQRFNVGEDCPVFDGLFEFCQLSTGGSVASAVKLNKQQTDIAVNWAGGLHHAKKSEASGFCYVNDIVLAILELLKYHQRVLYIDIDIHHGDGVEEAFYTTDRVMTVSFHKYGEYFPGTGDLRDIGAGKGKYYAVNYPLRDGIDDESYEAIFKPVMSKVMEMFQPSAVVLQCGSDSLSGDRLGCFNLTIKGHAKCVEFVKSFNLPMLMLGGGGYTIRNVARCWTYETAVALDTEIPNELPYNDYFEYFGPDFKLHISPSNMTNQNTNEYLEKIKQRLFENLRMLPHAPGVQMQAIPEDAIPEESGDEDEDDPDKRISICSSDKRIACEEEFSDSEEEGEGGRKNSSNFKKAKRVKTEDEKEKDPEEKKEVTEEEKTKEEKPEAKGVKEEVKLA
assay info: HDAC biochemical assay (Fluor-de-Lys), HDAC1
test conditions: human recombinant HDAC1; values > 10 μM estimated from best curve fitting
Interpret pIC50 as the negative base-10 log of the concentration measured in mol/L.

O=C(NO)c1ccc(CNc2cccc3cc(-c4ccsc4)cnc23)cc1 5.22
O=C(NO)c1ccc(CNc2cccc3cc(Cl)cnc23)cc1 5.36

Lab note: next molecule to report on.
In one line, give reported pIC50 of the entry COc1cnc2c(NCc3ccc(C(=O)NO)cc3)cccc2c1 . 5.31
